- Tested on: GPR17+ cells (newly differentiated oligodendrocytes)
- experiment_description: In vivo OPC differentiation, GPR17+ cells in brain
- condition_parameters: Mus musculus, po, 24 h, read-out: GPR17 Fold Induction (Over Vehicle)
Rule: fold induction at 3 mg/kg below 5 gives satisfied, anything at or above gives not satisfied.

Consider the worked cases shown below.
{"columns": ["compound", "tested_system", "group"],
 "data": [
  ["Cn1cc(-c2ccc3c(N4CCN(C(=O)OCc5cccc(C#N)c5)CC4)cnn3c2)cn1", "GPR17+ cells (newly differentiated oligodendrocytes)", "satisfied"],
  ["C[C@@H](OC(=O)N1CCN(c2cnn3cc(-c4cnn(C)c4)ccc23)CC1)c1cccc2ccccc12", "GPR17+ cells (newly differentiated oligodendrocytes)", "satisfied"],
  ["Cn1cc(-c2ccc3c(N4CCN(c5ncc(C(O)C6CCCCC6)cn5)CC4)cnn3c2)cn1 (stereo not shown)", "GPR17+ cells (newly differentiated oligodendrocytes)", "satisfied"],
  ["Cn1cc(-c2ccc3c(N4CCN(c5ncc(C(O)CCc6ccccc6)cn5)CC4)cnn3c2)cn1 (stereo not shown)", "GPR17+ cells (newly differentiated oligodendrocytes)", "not satisfied"]
]}

Take the compound Cn1cc(-c2ccc3c(N4CCN(c5ncc(C(CO)c6ccc(F)cc6)cn5)CC4)cnn3c2)cn1 (stereo not shown) and say whether its fold induction at 3 mg/kg is less than 5.
satisfied

A record lists Cc1ccc(C(C)OC(=O)N2CCN(c3cnn4cc(-c5cnn(C)c5)ccc34)CC2)nc1 (stereo not shown) . Is its fold induction at 3 mg/kg below 5?
satisfied
